The measured values listed here are drawn from patent US9365563B2.

Experiment: Aqueous solubility
Assay type: physicochemical
Settings: pH 6.8
Parameter: aqueous solubility at pH 6.8. Scope: all listed entries.

Solved cases (4 shown):
• O=C(Nc1ccc(C(F)(F)F)cc1)N1CC=C(c2ncc(CO)cc2Cl)CC1 = > 50 μM
• O=C(Nc1ccc(OC(F)(F)F)cc1)N1CC=C(c2ncccc2Cl)CC1 = 1.8 μM
• O=C(Nc1ccc(C(F)(F)F)cc1)N1CC=C(c2ncccc2Cl)CC1 = < 0.1 μM
• O=C(Nc1ccc(OC(F)(F)F)cc1)N1CC=C(c2ncc([C@H](O)CO)cc2Cl)CC1 [Compound E2] = > 50 μM

Problem: Note aqueous solubility at pH 6.8 for the compound shown: O=C(Nc1ccc(S(=O)(=O)C(F)(F)F)cc1)N1CCC(F)(c2ncc([C@H](O)CO)cc2Cl)CC1
Solution: > 50 μM

Problem: Note aqueous solubility at pH 6.8 for the compound shown: COC(=O)Cc1cnc(C2=CCN(C(=O)Nc3ccc(C(F)(F)F)cc3)CC2)c(Cl)c1
Solution: 9.2 μM

Problem: Note aqueous solubility at pH 6.8 for the compound shown: O=C(Nc1ccc(C(F)(F)F)cc1)N1CC=C(c2ncc([C@H](O)CO)cc2Cl)CC1
Solution: > 50 μM

Problem: Note aqueous solubility at pH 6.8 for the compound shown: O=C(Nc1ccc(C(F)(F)F)c(F)c1)N1CC=C(c2ncccc2Cl)CC1
Solution: 0.8 μM

----------
Parameter: log10 of IC50. Scope: all listed entries.
Target: human TRPV1 (Homo sapiens (Human))
Sequence (Q8NER1 whole entry): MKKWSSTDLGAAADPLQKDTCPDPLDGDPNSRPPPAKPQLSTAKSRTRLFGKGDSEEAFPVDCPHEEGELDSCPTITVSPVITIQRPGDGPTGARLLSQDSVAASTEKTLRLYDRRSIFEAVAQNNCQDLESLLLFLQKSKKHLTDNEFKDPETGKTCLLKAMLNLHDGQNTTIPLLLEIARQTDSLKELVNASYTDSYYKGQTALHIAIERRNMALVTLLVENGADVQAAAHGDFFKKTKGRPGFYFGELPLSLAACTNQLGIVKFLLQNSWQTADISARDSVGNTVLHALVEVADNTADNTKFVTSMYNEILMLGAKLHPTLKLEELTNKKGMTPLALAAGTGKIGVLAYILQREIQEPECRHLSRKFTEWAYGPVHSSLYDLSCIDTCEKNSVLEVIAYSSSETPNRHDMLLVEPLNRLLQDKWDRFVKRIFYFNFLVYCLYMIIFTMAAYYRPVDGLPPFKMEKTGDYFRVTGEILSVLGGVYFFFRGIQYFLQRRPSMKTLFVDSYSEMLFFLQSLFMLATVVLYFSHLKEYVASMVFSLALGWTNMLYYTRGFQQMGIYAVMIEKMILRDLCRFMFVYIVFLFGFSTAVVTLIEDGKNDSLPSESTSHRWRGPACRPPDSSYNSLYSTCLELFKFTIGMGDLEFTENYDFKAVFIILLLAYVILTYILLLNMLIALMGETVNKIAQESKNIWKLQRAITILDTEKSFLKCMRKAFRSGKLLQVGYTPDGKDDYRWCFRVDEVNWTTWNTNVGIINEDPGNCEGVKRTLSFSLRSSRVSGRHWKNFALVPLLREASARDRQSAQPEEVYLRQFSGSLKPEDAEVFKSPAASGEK
Assay: Capsaicin-based assay, Protocol 2 (hCAP-CHO)
Format: cell-based
Details: TRPV1/CHO cells, 100 nM capsaicin; mean ± SEM; read-out: TRPV1 IC50 Potency Human Capsaicin CHO (hCAP-CHO)
Please keep in mind that the values are log10 of IC50 expressed in nM.

Solved cases (2 shown):
• O=C(Nc1ccc(C(F)(F)F)c(Cl)c1)N1CCC(F)(c2ncc([C@@H](O)CO)cc2F)CC1 = 1.69
• CC(C)(C)c1ccc(NC(=O)N2CC=C(c3ncc([C@@H](O)CO)cc3Cl)CC2)cc1 [Compound E1] = 1.27

Problem: Note log10 of IC50 for the compound shown: O=C(Nc1ccc(OC(F)(F)F)c(-c2ccccc2)c1)N1CC=C(c2ncc(CO)cc2Cl)CC1
Solution: 2.75

Problem: Note log10 of IC50 for the compound shown: O=C(Nc1ccc(OC(F)(F)F)c(Cl)c1)N1CC=C(c2ncc([C@H](O)CO)cc2Cl)CC1
Solution: 1.87

Problem: Note log10 of IC50 for the compound shown: O=C(Nc1ccc(C(F)(F)F)c(Cl)c1)N1CCC(F)(c2ncc([C@H](O)CO)cc2F)CC1
Solution: 1.16

----------
Parameter: aqueous solubility at pH 1.2. Scope: all listed entries.
Assay: Aqueous solubility
Assay type: physicochemical
Settings: pH 1.2

Solved cases (3 shown):
- O=C(Nc1ccc(C(F)(F)F)c(F)c1)N1CCC(F)(c2ncc([C@H](O)CO)cc2F)CC1 [Compound Y3]: > 50 μM
- O=C(Nc1ccc(C(F)(F)F)c(Cl)c1)N1CC=C(c2ncc([C@H](O)CO)cc2F)CC1 [Compound U3]: > 50 μM
- O=C(Nc1ccc(C(F)(F)F)c(Cl)c1)N1CC=C(c2ncccc2F)CC1 [Compound 215]: 9.6 μM

Problem: Note aqueous solubility at pH 1.2 for the compound shown: O=C(O)Cc1cnc(C2=CCN(C(=O)Nc3ccc(C(F)(F)F)cc3)CC2)c(Cl)c1 [Compound G6]
Solution: > 50 μM

Problem: Note aqueous solubility at pH 1.2 for the compound shown: O=C(Nc1ccc(OC(F)(F)F)cc1)N1CC=C(c2ncc([C@H](O)CO)cc2Cl)CC1 [Compound E2]
Solution: > 50 μM

Problem: Note aqueous solubility at pH 1.2 for the compound shown: O=C(Nc1ccc(OC(F)(F)F)cc1)N1CCC(F)(c2ncccc2Cl)CC1 [Compound 211]
Solution: 1.3 μM

Problem: Note aqueous solubility at pH 1.2 for the compound shown: O=C(Nc1ccc(C(F)(F)F)cc1)N1CC=C(c2ncc([C@H](O)CO)cc2F)CC1 [Compound U1]
Solution: > 50 μM

Problem: Note aqueous solubility at pH 1.2 for the compound shown: O=C(Nc1ccc(C(F)(F)F)cc1)N1CCC(F)(c2ncc([C@H](O)CO)cc2Cl)CC1 [Compound N1]
Solution: > 50 μM

Problem: Note aqueous solubility at pH 1.2 for the compound shown: CC(O)c1cnc(C2=CCN(C(=O)Nc3ccc(C(F)(F)F)cc3)CC2)c(Cl)c1 (stereo not shown) [Compound G2]
Solution: > 50 μM

Problem: Note aqueous solubility at pH 1.2 for the compound shown: O=C(Nc1ccc(C(F)(F)F)c(F)c1)N1CC=C(c2ncccc2Cl)CC1 [Compound 213]
Solution: 39.6 μM

Problem: Note aqueous solubility at pH 1.2 for the compound shown: O=C(Nc1ccc(OC(F)(F)F)cc1)N1CC=C(c2ncccc2Cl)CC1 [Compound 214]
Solution: > 50 μM
